# assayedTarget: puromycin-sensitive aminopeptidase (Homo sapiens, UniProt P55786)
# Construct: purchased R&D Systems (Minneapolis, MN)
# Sequence (P55786 whole entry): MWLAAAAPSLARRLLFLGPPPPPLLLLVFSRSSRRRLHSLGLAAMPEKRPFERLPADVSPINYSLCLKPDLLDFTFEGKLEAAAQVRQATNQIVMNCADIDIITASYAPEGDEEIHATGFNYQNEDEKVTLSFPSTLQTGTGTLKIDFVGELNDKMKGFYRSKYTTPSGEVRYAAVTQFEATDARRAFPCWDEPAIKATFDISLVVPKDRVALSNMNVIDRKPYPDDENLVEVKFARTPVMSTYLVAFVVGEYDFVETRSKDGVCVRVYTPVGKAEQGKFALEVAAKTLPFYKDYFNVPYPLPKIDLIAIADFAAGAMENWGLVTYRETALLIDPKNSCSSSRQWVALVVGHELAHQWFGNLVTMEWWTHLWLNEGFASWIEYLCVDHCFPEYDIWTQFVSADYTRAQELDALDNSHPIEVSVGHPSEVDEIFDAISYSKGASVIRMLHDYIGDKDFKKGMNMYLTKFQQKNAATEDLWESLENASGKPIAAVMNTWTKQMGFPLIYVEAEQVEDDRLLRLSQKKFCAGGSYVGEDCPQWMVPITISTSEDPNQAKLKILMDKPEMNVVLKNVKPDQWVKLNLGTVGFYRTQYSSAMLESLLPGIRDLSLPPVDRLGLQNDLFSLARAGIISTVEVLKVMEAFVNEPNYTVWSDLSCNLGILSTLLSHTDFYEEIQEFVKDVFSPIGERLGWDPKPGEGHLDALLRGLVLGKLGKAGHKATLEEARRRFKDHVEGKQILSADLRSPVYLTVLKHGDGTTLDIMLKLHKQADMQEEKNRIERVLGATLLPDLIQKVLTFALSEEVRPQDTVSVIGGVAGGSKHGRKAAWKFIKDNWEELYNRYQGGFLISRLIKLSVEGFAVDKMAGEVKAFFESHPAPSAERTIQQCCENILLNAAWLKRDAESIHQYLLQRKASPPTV
# experimentDescription: Purified peptidase assay, PSA
# Type: biochemical
# reportedConditions: recombinant purified human enzyme; for prodrugs the active form was tested
readoutType: pIC50
The meaning of pIC50 here: minus log10 of the concentration in molar units.

(Q) What value of measured pIC50 is listed for CC1(C)CCC[C@H](NC(=O)[C@@H](S)Cc2ccccc2)C(=O)N1CC(=O)O [Gemopatrilat] ?
(A) 4.74

* * *

# assayedTarget: ACE (Homo sapiens, UniProt P12821)
# Sequence (P12821 30-1306): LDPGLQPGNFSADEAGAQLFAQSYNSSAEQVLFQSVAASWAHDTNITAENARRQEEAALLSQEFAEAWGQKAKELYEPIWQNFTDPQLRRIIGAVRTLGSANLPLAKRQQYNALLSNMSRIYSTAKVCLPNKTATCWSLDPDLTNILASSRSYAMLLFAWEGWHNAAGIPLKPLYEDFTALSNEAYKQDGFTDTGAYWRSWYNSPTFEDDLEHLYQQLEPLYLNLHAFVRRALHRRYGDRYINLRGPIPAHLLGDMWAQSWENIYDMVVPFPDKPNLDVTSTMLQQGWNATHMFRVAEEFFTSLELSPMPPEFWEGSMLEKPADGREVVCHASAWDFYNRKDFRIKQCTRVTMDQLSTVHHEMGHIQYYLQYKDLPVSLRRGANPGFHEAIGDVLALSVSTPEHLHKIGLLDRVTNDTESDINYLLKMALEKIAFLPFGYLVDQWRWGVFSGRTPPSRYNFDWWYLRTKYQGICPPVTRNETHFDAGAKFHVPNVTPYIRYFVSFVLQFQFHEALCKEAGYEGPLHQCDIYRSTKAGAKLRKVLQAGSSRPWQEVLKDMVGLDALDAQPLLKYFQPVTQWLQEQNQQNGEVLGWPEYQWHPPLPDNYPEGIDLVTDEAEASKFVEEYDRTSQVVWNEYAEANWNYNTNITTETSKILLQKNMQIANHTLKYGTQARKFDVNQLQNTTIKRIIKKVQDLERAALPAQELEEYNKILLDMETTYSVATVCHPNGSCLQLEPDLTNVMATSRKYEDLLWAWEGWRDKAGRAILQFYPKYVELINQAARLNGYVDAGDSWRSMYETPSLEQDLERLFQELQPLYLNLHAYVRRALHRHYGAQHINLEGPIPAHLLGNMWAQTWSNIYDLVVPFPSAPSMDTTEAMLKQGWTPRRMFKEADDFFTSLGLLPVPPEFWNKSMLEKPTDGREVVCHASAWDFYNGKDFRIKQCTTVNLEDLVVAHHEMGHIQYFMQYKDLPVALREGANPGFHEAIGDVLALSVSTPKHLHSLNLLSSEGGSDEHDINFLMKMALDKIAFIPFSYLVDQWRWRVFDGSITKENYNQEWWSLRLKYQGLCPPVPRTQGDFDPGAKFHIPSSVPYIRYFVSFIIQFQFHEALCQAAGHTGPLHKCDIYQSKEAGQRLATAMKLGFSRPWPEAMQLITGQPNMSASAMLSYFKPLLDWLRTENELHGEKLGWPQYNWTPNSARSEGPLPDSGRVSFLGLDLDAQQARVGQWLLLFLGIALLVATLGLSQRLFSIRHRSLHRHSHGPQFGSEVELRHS
# experimentDescription: Purified peptidase assay, ACE
# reportedConditions: recombinant purified human enzyme; for prodrugs the active form was tested
pIC50: −log10 of the molar value.
readoutType: pIC50

O=C(N[C@H]1CCS[C@H]2CCC[C@@H](C(=O)O)N2C1=O)[C@@H](S)Cc1ccccc1: 6.72
CC1(C)CCC[C@H](NC(=O)[C@@H](S)Cc2ccccc2)C(=O)N1CC(=O)O: 6.64

* * *

# assayedTarget: ECE-1 (Homo sapiens)
# Construct: purchased R&D Systems (Minneapolis, MN)
# Sequence (P42892 1-770): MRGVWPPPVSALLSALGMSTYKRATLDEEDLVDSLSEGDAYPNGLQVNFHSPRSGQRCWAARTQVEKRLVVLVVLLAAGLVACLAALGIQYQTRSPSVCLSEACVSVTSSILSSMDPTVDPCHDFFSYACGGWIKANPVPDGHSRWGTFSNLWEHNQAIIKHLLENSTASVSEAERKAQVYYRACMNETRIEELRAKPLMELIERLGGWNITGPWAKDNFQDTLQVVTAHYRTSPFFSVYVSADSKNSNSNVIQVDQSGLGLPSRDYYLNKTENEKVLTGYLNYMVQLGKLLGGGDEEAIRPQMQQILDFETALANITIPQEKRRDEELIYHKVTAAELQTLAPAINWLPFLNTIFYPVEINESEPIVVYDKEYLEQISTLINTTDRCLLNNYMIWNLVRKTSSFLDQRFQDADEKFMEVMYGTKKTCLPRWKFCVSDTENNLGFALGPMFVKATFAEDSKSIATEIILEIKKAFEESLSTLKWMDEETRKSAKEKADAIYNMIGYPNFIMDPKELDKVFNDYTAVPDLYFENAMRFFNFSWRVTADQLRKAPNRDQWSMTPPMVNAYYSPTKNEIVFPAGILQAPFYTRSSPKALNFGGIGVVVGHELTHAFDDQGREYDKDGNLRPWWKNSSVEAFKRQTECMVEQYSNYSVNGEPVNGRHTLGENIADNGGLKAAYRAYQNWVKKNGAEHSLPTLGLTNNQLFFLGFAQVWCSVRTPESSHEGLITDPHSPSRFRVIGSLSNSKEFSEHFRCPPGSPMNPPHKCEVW
# experimentDescription: biochemical
# reportedConditions: recombinant purified human enzyme; for prodrugs the active form was tested
readoutType: IC50 (µM)

A: Cc1nc2ccc(CCCNC(=O)C3(C[C@@H](C)C(=O)O)CCCC3)cc2s1
B: CC1(C)CCC[C@H](NC(=O)[C@@H](S)Cc2ccccc2)C(=O)N1CC(=O)O
C: O=C(N[C@H]1CCS[C@H]2CCC[C@@H](C(=O)O)N2C1=O)[C@@H](S)Cc1ccccc1
(Q) Rank the compounds listed above in increasing order of IC50. Form entry: ranked labels (order as requested).
(A) A, B, C
(A: 3.3 µM, B: 12 µM, C: 21 µM)
